These measurements were taken from patent US20200024354A1.

Target: T1, recombinant human BAFF-Fc (Sino Biological) (human, UniProt Q9Y275 134-285)
T1 construct: Bought reagent; also called hBAFF; not shown: Fc moiety detected by anti-human Fc
T1 sequence (Q9Y275 134-285): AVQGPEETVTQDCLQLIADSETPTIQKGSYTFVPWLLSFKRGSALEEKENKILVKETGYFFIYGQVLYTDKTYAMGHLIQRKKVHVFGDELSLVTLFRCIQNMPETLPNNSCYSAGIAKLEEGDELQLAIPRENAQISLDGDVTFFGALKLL
Experiment: blocking ELISA, VNAR diluted with 1.14 nM BAFF-Fc; binding of BAFF-Fc to coated BAFF-R extracellular domain
Answer each item with its documented pIC50.
Hey, just a heads up that pIC50 is the negative log base 10 of the concentration in molar.

Task: Value lookup for pIC50; key = ID2-101B01 (VNAR, Nurse shark VNAR single domain, monomer) VNAR: AARVDQTPQTITKETGESLTINCVLRDSNCALSSTYWYRKKSGSTNEESISKGGRYVETVNSGSKSFSLRINDLTVEDSGTYRCNVAPTIISGCSIKRRDVYGGGTAVTVNA
Output: 7.04

Task: Here is the next binder: ID2-101C01 (VNAR, Nurse shark VNAR single domain, monomer) VNAR: AARVDQTPQTITKETGESLTINCVLRDNNCALSTTYWYRKKSGSTNEENISKGGRYVETVNSGSKSFSLRINDLTVEDSGTYRCKVRLDLLLCRNGSTNSIDVYGGGTAVTVNA
Output: 8.41

Task: Could you do the same for ID2-101B11 (VNAR, Nurse shark VNAR single domain, monomer) VNAR: AARVDQTPRSVTKETGESLTINCVLRDSNCALSSTYWYRKKSGSTNEENISKGGRYVETVNSGSKSFSLRINDLTVEDSGTYRCKVMLDPLLCPALLESMTDVYGGGTAVTVNA , please?
Output: 8.16

Task: Moving on to ID2-101A12 (VNAR, Nurse shark VNAR single domain, monomer) VNAR: AARVDQTPQTVTKETGESLTINCVLRDASYALGSTCWYRKKSGSRNEESISKGGRYVETVNSGSKSFSLRINDLTVEDSGTYRCKVRDPLLFPRDRCDGESKDVYGGGTVVTVNA
Output: 7.31
